assay: AUC (0 to 6 hrs) in Sprague-Dawley rat at 30 mg/kg, po by LC-MS/MS analysis; assay type: ADME, organism-based; parameters: dose 30 mg/kg, time < 6 hr, route oral; conditions: in vivo
Quantity name: AUC(0-t) at 6 h (ng·h/mL)
Kindly provide the numeric value in ng·h/mL only, without the unit symbol.

O=C(CC1([C@H]2COC[C@@H](C3CC3)N2S(=O)(=O)c2ccc(F)cc2)CC1)N1CCC(N2CCCCC2)CC1 :: 575
O=C(CC1([C@H]2CO[C@H]3CCC[C@H]3N2S(=O)(=O)c2ccc(Cl)cc2)CC1)N1CCC(CO)CC1 :: 36
O=C(CC1([C@H]2COC[C@@H](C3CC3)N2S(=O)(=O)c2ccc(Cl)cc2)CC1)N1CC2CCC(C1)N2CCO :: 2730
CC(C)(CO)N1CCN(C(=O)CC2([C@H]3COC[C@@H](C4CC4)N3S(=O)(=O)c3ccc(Cl)cc3)CC2)CC1 :: 464

Return reported AUC(0-t) at 6 h; argument: O=C(CC1([C@H]2COC[C@@H](C3CC3)N2S(=O)(=O)c2ccc(Cl)cc2)CC1)N1C2CCC1CC(N1CCCCC1)C2 (stereo partly specified)
1290

Return reported AUC(0-t) at 6 h; argument: O=C(C(O)C1([C@H]2COC[C@@H](C3CC3)N2S(=O)(=O)c2ccc(Cl)cc2)CC1)N1C2CCC1CC(N1CCCCC1)C2 (stereo partly specified)
267

---

# key: entry, value: IC50
test: Inhibition of gamma-secretase in HEK293 cells expressing human APP Swedish/London mutant assessed as reduction in amyloid beta 40 level after 5 hrs by sandwich immunoassay; type: cell-based; details: HEK293, 5 h
Kindly provide the numeric value in nM only, without the unit symbol.

Examples with answers:
CC(=O)N1C2CCC1CN(C(=O)CC1([C@H]3COC[C@@H](C4CC4)N3S(=O)(=O)c3ccc(Cl)cc3)CC1)C2 :: 18
CC(=O)N1CCN(C(=O)CC2([C@H]3COC[C@@H](C4CC4)N3S(=O)(=O)c3ccc(F)cc3)CC2)CC1 :: 67
C[C@H]1CN(C(C)(C)CO)CCN1C(=O)CC1([C@H]2COC[C@@H](C3CC3)N2S(=O)(=O)c2ccc(F)cc2)CC1 :: 14

Alright, here's another compound for you.
Return reported IC50; argument: O=C(C(O)C1([C@H]2COC[C@@H](C3CC3)N2S(=O)(=O)c2ccc(Cl)cc2)CC1)N1CC2CCC(C1)N2 (some centres undefined)
10

---

molecular target: Cytochrome P450 3A4 (Homo sapiens, UniProt P08684); assay: Inhibition of recombinant human CYP3A4 expressed in baculovirus infected insect cells using fluorescent substrate; assay type: ADME
Sequence (P08684 whole entry): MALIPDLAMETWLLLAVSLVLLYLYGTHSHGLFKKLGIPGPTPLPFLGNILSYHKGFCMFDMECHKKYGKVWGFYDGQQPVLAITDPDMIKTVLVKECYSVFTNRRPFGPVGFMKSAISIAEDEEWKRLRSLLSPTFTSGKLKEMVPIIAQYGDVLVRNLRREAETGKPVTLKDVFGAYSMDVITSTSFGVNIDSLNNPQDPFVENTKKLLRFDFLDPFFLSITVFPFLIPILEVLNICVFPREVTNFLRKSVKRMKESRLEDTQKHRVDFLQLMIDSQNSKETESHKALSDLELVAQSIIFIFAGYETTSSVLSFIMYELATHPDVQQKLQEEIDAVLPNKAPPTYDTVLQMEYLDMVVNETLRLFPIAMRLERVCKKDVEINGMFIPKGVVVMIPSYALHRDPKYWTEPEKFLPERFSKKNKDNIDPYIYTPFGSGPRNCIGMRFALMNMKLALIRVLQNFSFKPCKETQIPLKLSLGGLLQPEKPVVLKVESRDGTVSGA
pIC50: −log10 of the molar value.
Quantity name: pIC50

CC(C)(CO)N1CCN(C(=O)CC2([C@H]3COC[C@@H](C4CC4)N3S(=O)(=O)c3ccc(Cl)cc3)CC2)CC1 :: < 4.52
O=C(CC1([C@H]2COC[C@@H](C3CC3)N2S(=O)(=O)c2ccc(Cl)cc2)CC1)N1CC2CCC(C1)N2CCO :: < 4.52
O=C(CC1([C@H]2CO[C@H]3CCC[C@H]3N2S(=O)(=O)c2ccc(Cl)cc2)CC1)N1CCC(CO)CC1 :: 4.52
O=C(CC1([C@H]2COC[C@@H](C3CC3)N2S(=O)(=O)c2ccc(F)cc2)CC1)N1CCN(CCO)CC1 :: < 4.52
CC(=O)N1CCN(C(=O)CC2([C@H]3COC[C@@H](C4CC4)N3S(=O)(=O)c3ccc(F)cc3)CC2)CC1 :: 4.52

Return reported pIC50; argument: `C[C@H]1CN(C(C)(C)CO)CCN1C(=O)CC1([C@H]2COC[C@@H](C3CC3)N2S(=O)(=O)c2ccc(F)cc2)CC1`
< 4.52

Return reported pIC50; argument: O=C(C(O)C1([C@H]2COC[C@@H](C3CC3)N2S(=O)(=O)c2ccc(Cl)cc2)CC1)N1C2CCC1CC(N1CCCCC1)C2 (some centres undefined)
< 4.52

Return reported pIC50; argument: `O=C(CC1([C@H]2CO[C@H]3CCC[C@H]3N2S(=O)(=O)c2ccc(Cl)cc2)CC1)N1CC[C@@H](CO)C1`
4.52

Return reported pIC50; argument: `O=C(CC1([C@H]2CO[C@H]3CCC[C@H]3N2S(=O)(=O)c2ccc(Cl)cc2)CC1)N1CCC(N2CCCCC2)CC1`
4.68

Return reported pIC50; argument: O=C(CC1([C@H]2COC[C@@H](C3CC3)N2S(=O)(=O)c2ccc(Cl)cc2)CC1)N1C2CCC1CC(N1CCCCC1)C2 (some centres undefined)
< 4.52

Return reported pIC50; argument: `CC(=O)N1C2CCC1CN(C(=O)CC1([C@H]3COC[C@@H](C4CC4)N3S(=O)(=O)c3ccc(Cl)cc3)CC1)C2`
4.52

Return reported pIC50; argument: `O=C(CC1([C@H]2CO[C@H]3CCC[C@H]3N2S(=O)(=O)c2ccc(Cl)cc2)CC1)N1CC[C@@H](O)C1`
< 4.52

Return reported pIC50; argument: `O=C(CC1([C@H]2COC[C@@H](C3CC3)N2S(=O)(=O)c2ccc(F)cc2)CC1)N1CCC(N2CCCCC2)CC1`
< 4.52

Return reported pIC50; argument: O=C(C(O)C1([C@H]2COC[C@@H](C3CC3)N2S(=O)(=O)c2ccc(Cl)cc2)CC1)N1CC2CCC(C1)N2 (some centres undefined)
< 4.52

---

molecular target: UniProt:P08684; assay: Inhibition of recombinant human CYP3A4 expressed in baculovirus infected insect cells preincubated for 30 mins using fluorescent substrate; assay type: ADME
pIC50: −log10 of the molar value.
# key: entry, value: pIC50

Examples with answers:
O=C(CC1([C@H]2CO[C@H]3CCC[C@H]3N2S(=O)(=O)c2ccc(Cl)cc2)CC1)N1CC[C@@H](O)C1 :: < 4.52
O=C(C(O)C1([C@H]2COC[C@@H](C3CC3)N2S(=O)(=O)c2ccc(Cl)cc2)CC1)N1C2CCC1CC(N1CCCCC1)C2 (stereo partly drawn) :: < 4.52

Alright, here's another molecule for you.
What reported pIC50 corresponds to `O=C(CC1([C@H]2COC[C@@H](C3CC3)N2S(=O)(=O)c2ccc(Cl)cc2)CC1)N1CC2CCC(C1)N2CCO` on UniProt:P08684?
> 6.40
